Could you please report measured inhibition at 0.1 µM for the items listed next?
# assayed_target: AR protein (Homo sapiens, UniProt P10275)
# Construct: degradation activity of the compounds disclosed in the present disclosure on AR protein in VCaP cells; host or cells: VCaP
# Sequence (P10275 whole entry): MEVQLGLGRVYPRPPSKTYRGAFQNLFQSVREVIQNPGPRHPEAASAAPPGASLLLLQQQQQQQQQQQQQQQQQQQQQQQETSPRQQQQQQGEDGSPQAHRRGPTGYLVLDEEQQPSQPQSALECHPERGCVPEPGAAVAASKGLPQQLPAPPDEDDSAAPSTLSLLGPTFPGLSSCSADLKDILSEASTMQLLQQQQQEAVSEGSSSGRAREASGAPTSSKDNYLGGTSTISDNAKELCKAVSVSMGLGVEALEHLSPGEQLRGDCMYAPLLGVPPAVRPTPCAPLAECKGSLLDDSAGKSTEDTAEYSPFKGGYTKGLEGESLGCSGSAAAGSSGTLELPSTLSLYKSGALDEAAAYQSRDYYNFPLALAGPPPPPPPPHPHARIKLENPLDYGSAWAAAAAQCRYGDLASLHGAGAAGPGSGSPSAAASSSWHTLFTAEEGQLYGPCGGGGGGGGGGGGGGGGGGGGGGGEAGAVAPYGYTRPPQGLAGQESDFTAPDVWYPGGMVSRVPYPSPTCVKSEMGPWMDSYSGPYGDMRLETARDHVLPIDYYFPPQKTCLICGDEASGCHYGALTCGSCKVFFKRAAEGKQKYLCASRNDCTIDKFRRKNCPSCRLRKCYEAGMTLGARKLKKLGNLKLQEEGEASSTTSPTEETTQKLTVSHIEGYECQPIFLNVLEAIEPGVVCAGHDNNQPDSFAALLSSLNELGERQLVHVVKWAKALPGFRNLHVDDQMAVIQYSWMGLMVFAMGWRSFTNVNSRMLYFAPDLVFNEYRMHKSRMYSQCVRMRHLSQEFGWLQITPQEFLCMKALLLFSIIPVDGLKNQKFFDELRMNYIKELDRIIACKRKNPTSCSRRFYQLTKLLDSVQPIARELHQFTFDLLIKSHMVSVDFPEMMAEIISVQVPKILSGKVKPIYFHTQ
# test_method_notes: Degradation of AR protein in VCaP cells (Western blot)
# Format: cell-based
# run_conditions: compound at 100 nM, 8 hours, read-out: Degradation rate of the AR protein in VCaP cells, 100 nM (%)
Give bare numbers, in %.

Report inhibition at 0.1 µM for each item below.
1. N#Cc1ccc(O[C@H]2CC[C@H](NC(=O)c3ccc(N4CCC(F)(CN5CC6(CCc7ccc8c(c7O6)C(=O)N(C6CCC(=O)NC6=O)C8=O)C5)CC4)nn3)CC2)cc1Cl (some centres unmarked)
2. N#Cc1ccc(O[C@H]2CC[C@H](NC(=O)c3ccc(N4CCC(CN5CCC6(CC5)Cc5cc7c(cc5O6)C(=O)N(C5CCC(=O)NC5=O)C7=O)CC4)nn3)CC2)cc1Cl (some centres unmarked)

8
57

Report inhibition at 0.1 µM for each item below.
1. COc1cc(O[C@H]2CC[C@H](NC(=O)c3ccc(N4CCC(CN5CCC6(CC5)COc5c6ccc6c5C(=O)N(C5CCC(=O)NC5=O)C6=O)(OC)CC4)cc3)CC2)ccc1C#N (some centres unmarked)
2. N#Cc1ccc(O[C@H]2CC[C@H](NC(=O)c3ccc(N4CC[C@@H](CN5CCC6(CC5)COc5cc7c(cc56)C(=O)N(C5CCC(=O)NC5=O)C7=O)C4)nn3)CC2)cc1Cl (some centres unmarked)
3. N#Cc1ccc(O[C@H]2CC[C@H](NC(=O)c3ccc(N4CCC(O)(CN5CCC6(CC5)COc5c6ccc6c5C(=O)N(C5CCC(=O)NC5=O)C6=O)CC4)nn3)CC2)cc1Cl (some centres unmarked)
4. COc1cc(O[C@H]2C(C)(C)[C@H](NC(=O)c3ccc(N4CCC(F)(CN5CC6(CCc7cc8c(cc7O6)C(=O)N(C6CCC(=O)NC6=O)C8=O)C5)CC4)cc3)C2(C)C)ccc1C#N (some centres unmarked)
5. N#Cc1ccc(O[C@H]2CC[C@H](NC(=O)c3ccc(N4CCC(F)(CN5CCC6(CC5)COc5cc7c(cc5C6)C(=O)N(C5CCC(=O)NC5=O)C7=O)CC4)nn3)CC2)cc1Cl (some centres unmarked)
6. N#Cc1ccc(O[C@H]2CC[C@H](NC(=O)c3ccc(N4CCC5(CCC(N6CCC7(CCc8cc9c(cc8O7)C(=O)N(C7CCC(=O)NC7=O)C9=O)CC6)CC5)CC4)nn3)CC2)cc1Cl (some centres unmarked)
7. N#Cc1ccc(O[C@H]2CC[C@H](NC(=O)c3ccc(N4CC(CN5CCC6(CC5)COc5cc7c(cc56)C(=O)N(C5CCC(=O)NC5=O)C7=O)C4)nn3)CC2)cc1Cl (some centres unmarked)

70
80
75
63
72
64
80

Report inhibition at 0.1 µM for each item below.
1. CC1(C)[C@H](NC(=O)c2ccc(N3CCC(F)(CN4CCC5(CC4)COc4c5ccc5c4CN(C4CCC(=O)NC4=O)C5=O)CC3)nn2)C(C)(C)[C@H]1Oc1ccc(C#N)c(C(F)(F)F)c1 (some centres unmarked)
2. CCC1(CN2CCC3(CC2)COc2c3ccc3c2C(=O)N(C2CCC(=O)NC2=O)C3=O)CCN(c2ccc(C(=O)N[C@H]3CC[C@H](Oc4ccc(C#N)c(OC)c4)CC3)nn2)CC1 (some centres unmarked)
3. N#Cc1ccc(O[C@H]2CC[C@H](NC(=O)c3ccc(N4CC5(CCc6cc7c(cc6O5)C(=O)N(C5CCC(=O)NC5=O)C7=O)C4)nn3)CC2)cc1Cl (some centres unmarked)
4. N#Cc1ccc(O[C@H]2CC[C@H](NC(=O)c3ccc(N4CC5(CCC(N6CCC7(CCc8ccc9c(c8O7)CN(C7CCC(=O)NC7=O)C9=O)CC6)CC5)C4)nn3)CC2)cc1Cl (some centres unmarked)
5. N#Cc1ccc(O[C@H]2CC[C@H](NC(=O)c3ccc(N4CCC(F)(CN5CCC6(CC5)COc5c6ccc6c5CN(C5CCC(=O)NC5=O)C6=O)CC4)nc3)CC2)cc1Cl (some centres unmarked)
6. COCC1(CN2CCC3(CC2)COc2c3ccc3c2CN(C2CCC(=O)NC2=O)C3=O)CCN(c2ccc(C(=O)N[C@H]3CC[C@H](Oc4ccc(C#N)c(Cl)c4)CC3)nn2)CC1 (some centres unmarked)
7. CCC1(CN2CCC3(CC2)COc2c3ccc3c2C(=O)N(C2CCC(=O)NC2=O)C3=O)CCN(c2ccc(C(=O)N[C@H]3C(C)(C)[C@H](Oc4ccc(C#N)c(OC)c4)C3(C)C)cc2)CC1 (some centres unmarked)

1. 23
2. 61
3. 28
4. 76
5. 80
6. 84
7. -9

Report inhibition at 0.1 µM for each item below.
1. N#Cc1ccc(O[C@H]2CC[C@H](NC(=O)c3ccc(N4CC5(CC(C(=O)N6CCC7(CC6)COc6c7ccc7c6CN(C6CCC(=O)NC6=O)C7=O)C5)C4)nn3)CC2)cc1Cl (some centres unmarked)
2. N#Cc1ccc(OC2CCC(NC(=O)c3ccc(N4CC5(CC(N6CCC7(CC6)COc6cc8c(cc6C7)C(=O)N(C6CCC(=O)NC6=O)C8=O)C5)C4)nn3)CC2)cc1Cl (centres unmarked)

81
42

Report inhibition at 0.1 µM for each item below.
1. COc1cc(O[C@H]2C(C)(C)[C@H](NC(=O)c3ccc(N4CCC(CN5CCC6(CCc7cc8c(cc7O6)CN(C6CCC(=O)NC6=O)C8=O)CC5)CC4)cc3)C2(C)C)ccc1C#N (some centres unmarked)
2. N#Cc1ccc(O[C@H]2CC[C@H](NC(=O)c3ccc(N4CCC5(CCC(N6CCC7(CC6)COc6cc8c(cc6C7)C(=O)N(C6CCC(=O)NC6=O)C8=O)CC5)C4)nn3)CC2)cc1Cl (some centres unmarked)

1. 59
2. 74

----------
Could you please report measured inhibition at 0.01 µM for the items listed next?
# assayed_target: AR protein (Homo sapiens)
# Construct: degradation activity of the compounds disclosed in the present disclosure on AR protein in VCaP cells; host or cells: VCaP
# test_method_notes: Degradation of AR protein in VCaP cells (Western blot)
# Assay type: cell-based
# run_conditions: compound at 10 nM, 8 hours, read-out: Degradation rate of the AR protein in VCaP cells, 10 nM (%)
One number for each entry, in %.

molecule: COC1(CN2CCC3(CC2)COc2ccc4c(c2C3)C(=O)N(C2CCC(=O)NC2=O)C4)CCN(c2ccc(C(=O)N[C@H]3CC[C@H](Oc4ccc(C#N)c(Cl)c4)CC3)nn2)CC1 (stereo partly shown)
quantity_unit: %
inhibition at 0.01 µM: 18
//
molecule: N#Cc1ccc(O[C@H]2CC[C@H](NC(=O)c3ccc(N4CCC(CN5CC6(CCc7cc8c(cc7O6)C(=O)N(C6CCC(=O)NC6=O)C8=O)C5)CC4)nn3)CC2)cc1Cl (stereo partly shown)
quantity_unit: %
inhibition at 0.01 µM: 65
//
molecule: N#Cc1ccc(O[C@H]2CC[C@H](NC(=O)c3ccc(N4CCC5(CCC(C(=O)N6CCC7(CC6)COc6c7ccc7c6CN(C6CCC(=O)NC6=O)C7=O)CC5)CC4)nn3)CC2)cc1Cl (stereo partly shown)
quantity_unit: %
inhibition at 0.01 µM: 10
//
molecule: N#Cc1ccc(OC2CCC(NC(=O)c3ccc(N4CC5(CC(N6CCC7(CC6)COc6cc8c(cc6C7)C(=O)N(C6CCC(=O)NC6=O)C8=O)C5)C4)nn3)CC2)cc1Cl (stereo not shown)
quantity_unit: %
inhibition at 0.01 µM: 49
//
molecule: N#Cc1ccc(O[C@H]2CC[C@H](NC(=O)c3ccc(N4CC(CN5CCC6(CCc7cc8c(cc7O6)C(=O)N(C6CCC(=O)NC6=O)C8=O)CC5)C4)nn3)CC2)cc1Cl (stereo partly shown)
quantity_unit: %
inhibition at 0.01 µM: 41

Report inhibition at 0.01 µM for each item below.
1. COc1cc(O[C@H]2C(C)(C)[C@H](NC(=O)c3ccc(N4CCC(C)(CN5CCC6(CC5)COc5c(ccc7c5C(=O)N(C5CCC(=O)NC5=O)C7)C6)CC4)cc3)C2(C)C)ccc1C#N (stereo partly shown)
2. N#Cc1ccc(O[C@H]2CC[C@H](NC(=O)c3ccc(N4CCC(C#N)(CN5CCC6(CC5)COc5c6ccc6c5C(=O)N(C5CCC(=O)NC5=O)C6=O)CC4)nn3)CC2)cc1C(F)(F)F (stereo partly shown)
3. N#Cc1ccc(O[C@H]2CC[C@H](NC(=O)c3ccc(N4CCC5(CC4)CC(N4CCC6(CC4)COc4c(ccc7c4C(=O)N(C4CCC(=O)NC4=O)C7)C6)C5)nn3)CC2)cc1Cl (stereo partly shown)
4. N#Cc1ccc(O[C@H]2CC[C@H](NC(=O)c3ccc(N4CCC5(CC(N6CCC7(CC6)COc6cc8c(cc67)C(=O)N(C6CCC(=O)NC6=O)C8=O)C5)C4)nn3)CC2)cc1Cl (stereo partly shown)
5. COc1cc(O[C@H]2C(C)(C)[C@H](NC(=O)c3ccc(N4CCC(CN5CC6(CCc7ccc8c(c7O6)C(=O)N(C6CCC(=O)NC6=O)C8=O)C5)CC4)cc3)C2(C)C)ccc1C#N (stereo partly shown)

[21, -9, 63, 75, -30]
